All values here come from the CheMixHub drug solubility set.

- methodDescription: xn = mol fraction of the nth substance listed, in the solute-free solvent
- conditionContext: 318.15 K; x2 = 0.7297
endpointLabel: solubility (g/100 g solution)

These solved cases illustrate the format of a correct answer.
Nc1ncc(Br)nc1Br + CC(C)O + O :: 0.634
CC(C)C(=O)Nc1ccc([N+](=O)[O-])c(C(F)(F)F)c1 + CC(C)O + O :: 39.4
O=c1cc(CBr)c2ccccc2[nH]1 + CC(C)O + O :: 0.176

a = O=c1cc(CBr)c2ccccc2[nH]1 + CCCO + O
b = O=C1C=CC(=O)N1c1ccccc1Br + CC(C)O + O
Which gives the smaller solubility (g/100 g solution) number: a or b ? Your answer should be the label of the entry you select.
a
